- Assay protocol: total protein half-life in vivo (active degradation + dilution); higher = more stable protein
- Experimental context: wild type E. coli NCM3722; growth: N-lim chemostat; doubling time 6 h
Please use Fulfilled whenever total protein half-life in vivo is not below 5 h, and Not fulfilled whenever it is.

Check out these entries, answers already filled in.
Construct sequence	Assigned category
MQKFDTRTFQGLILTLQDYWARQGCTIVQPLDMEVGAGTSHPMTCLRELGPEPMAAAYVQPSRRPTDGRYGENPNRLQHYYQFQVVIKPSPDNIQELYLGSLKELGMDPTIHDIRFVEDNWENPTLGAWGLGWEVWLNGMEVTQFTYFQQVGGLECKPVTGEITYGLERLAMYIQGVDSVYDLVWSDGPLGKTTYGDVFHQNEVEQSTYNFEYADVDFLFTCFEQYEKEAQQLLALENPLPLPAYERILKAAHSFNLLDARKAISVTERQRYILRIRTLTKAVAEAYYASREALGFPMCNKDK	Fulfilled
MKLFYKPGACSLASHITLRESGKDFTLVSVDLMKKRLENGDDYFAVNPKGQVPALLLDDGTLLTEGVAIMQYLADSVPDRQLLAPVNSISRYKTIEWLNYIATELHKGFTPLFRPDTPEEYKPTVRAQLEKKLQYVNEALKDEHWICGQRFTIADAYLFTVLRWAYAVKLNLEGLEHIAAFMQRMAERPEVQDALSAEGLK [P0A9D2]	Not fulfilled
MKKWSRHLLAAGALALGMSAAHADDNNTLYFYNWTEYVPPGLLEQFTKETGIKVIYSTYESNETMYAKLKTYKDGAYDLVVPSTYYVDKMRKEGMIQKIDKSKLTNFSNLDPDMLNKPFDPNNDYSIPYIWGATAIGVNGDAVDPKSVTSWADLWKPEYKGSLLLTDDAREVFQMALRKLGYSGNTTDPKEIEAAYNELKKLMPNVAAFNSDNPANPYMEGEVNLGMIWNGSAFVARQAGTPIDVVWPKEGGIFWMDSLAIPANAKNKEGALKLINFLLRPDVAKQVAETIGYPTPNLAARKLLSPEVANDKTLYPDAETIKNGEWQNDVGAASSIYEEYYQKLKAGR [P0AFK9]	Fulfilled

Request: Exam item: decide whether the reported total protein half-life in vivo for "MFKRRYVTLLPLFVLLAACSSKPKPTETDTTTGTPSGGFLLEPQHNVMQMGGDFANNPNAQQFIDKMVNKHGFDRQQLQEILSQAKRLDSVLRLMDNQAPTTSVKPPSGPNGAWLRYRKKFITPDNVQNGVVFWNQYEDALNRAWQVYGVPPEIIVGIIGVETRWGRVMGKTRILDALATLSFNYPRRAEYFSGELETFLLMARDEQDDPLNLKGSFAGAMGYGQFMPSSYKQYAVDFSGDGHINLWDPVDAIGSVANYFKAHGWVKGDQVAVMANGQAPGLPNGFKTKYSISQLAAAGLTPQQPLGNHQQASLLRLDVGTGYQYWYGLPNFYTITRYNHSTHYAMAVWQLGQAVALARVQ" is at least 5 h.
Result: Fulfilled

* * *

- Assay protocol: total protein half-life in vivo (active degradation + dilution); higher = more stable protein
- Experimental context: wild type E. coli NCM3722; growth: C-lim chemostat; doubling time 12 h
Readout name: total protein half-life in vivo (h)
Answers are plain numbers, in h.

Example entries begin here.
Construct sequence	total protein half-life in vivo, h
MNFLAHLHLAHLAESSLSGNLLADFVRGNPEESFPPDVVAGIHMHRRIDVLTDNLPEVREAREWFRSETRRVAPITLDVMWDHFLSRHWSQLSPDFPLQEFVCYAREQVMTILPDSPPRFINLNNYLWSEQWLVRYRDMDFIQNVLNGMASRRPRLDALRDSWYDLDAHYDALETRFWQFYPRMMAQASRKAL	6.12
MSIISTKYLLQDAQANGYAVPAFNIHNAETIQAILEVCSEMRSPVILAGTPGTFKHIALEEIYALCSAYSTTYNMPLALHLDHHESLDDIRRKVHAGVRSAMIDGSHFPFAENVKLVKSVVDFCHSQDCSVEAELGRLGGVEDDMSVDAESAFLTDPQEAKRFVELTGVDSLAVAIGTAHGLYSKTPKIDFQRLAEIREVVDVPLVLHGASDVPDEFVRRTIELGVTKVNVATELKIAFAGAVKAWFAENPQGNDPRYYMRVGMDAMKEVVRNKINVCGSANRISA [P0AB74]	4.72

State recorded total protein half-life in vivo for all listed sequences.
1. METVAYADFARLEMRVGKIVEVKRHENADKLYIVQVDVGQKTLQTVTSLVPYYSEEELMGKTVVVLCNLQKAKMRGETSECMLLCAETDDGSESVLLTPERMMPAGVRVV
2. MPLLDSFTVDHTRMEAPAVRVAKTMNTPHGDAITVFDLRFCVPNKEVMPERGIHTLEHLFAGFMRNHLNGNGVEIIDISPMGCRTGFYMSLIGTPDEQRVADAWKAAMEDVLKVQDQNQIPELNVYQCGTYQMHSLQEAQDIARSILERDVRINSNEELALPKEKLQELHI
3. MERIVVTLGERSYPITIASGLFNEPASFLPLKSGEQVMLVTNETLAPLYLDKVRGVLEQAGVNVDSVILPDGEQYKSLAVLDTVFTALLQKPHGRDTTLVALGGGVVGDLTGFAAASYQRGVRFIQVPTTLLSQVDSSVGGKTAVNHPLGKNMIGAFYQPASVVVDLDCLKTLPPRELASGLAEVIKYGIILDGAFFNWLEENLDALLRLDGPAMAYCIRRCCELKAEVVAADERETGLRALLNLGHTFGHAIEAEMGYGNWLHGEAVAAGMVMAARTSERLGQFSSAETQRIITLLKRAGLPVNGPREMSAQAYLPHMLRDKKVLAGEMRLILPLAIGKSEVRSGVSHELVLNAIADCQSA
4. MGMIGYFAEIDSEKINQLLESTEKPLMDNIHDTLSGLRRLDIDKRWDFLHFGLTGTSAFDPAKNDPLSRAVLGEHSLEDGIDGFLGLTWNQELAATIDRLESLDRNELRKQFSIKRLNEMEIYPGVTFSEELEGQLFASIMLDMEKLISAYRRMLRQGNHALTVIVG
5. MRNHQLGIYEKALAKDLSWPERLVLAKSCGFDFVEMSVDETDERLSRLDWSAAQRTSLVAAMIETGVGIPSMCLSAHRRFPFGSRDEAVRERAREIMSKAIRLARDLGIRTIQLAGYDVYYEDHDEGTRQRFAEGLAWAVEQAAASQVMLAVEIMDTAFMNSISKWKKWDEMLASPWFTVYPDVGNLSAWGNDVPAELKLGIDRIAAIHLKDTQPVTGQSPGQFRDVPFGEGCVDFVGIFKTLHKLNYRGSFLIEMWTEKAKEPVLEIIQARRWIEARMQEAGFIC

Result:
8.53
7.07
8.87
4.57
2.24

Give total protein half-life in vivo for all sequences that follow.
1. MTNPQFAGHPFGTTVTAETLRNTFAPLTQWEDKYRQLIMLGKQLPALPDELKAQAKEIAGCENRVWLGYTVAENGKMHFFGDSEGRIVRGLLAVLLTAVEGKTAAELQAQSPLALFDELGLRAQLSASRSQGLNALSEAIIAATKQV [P0AGF2]
2. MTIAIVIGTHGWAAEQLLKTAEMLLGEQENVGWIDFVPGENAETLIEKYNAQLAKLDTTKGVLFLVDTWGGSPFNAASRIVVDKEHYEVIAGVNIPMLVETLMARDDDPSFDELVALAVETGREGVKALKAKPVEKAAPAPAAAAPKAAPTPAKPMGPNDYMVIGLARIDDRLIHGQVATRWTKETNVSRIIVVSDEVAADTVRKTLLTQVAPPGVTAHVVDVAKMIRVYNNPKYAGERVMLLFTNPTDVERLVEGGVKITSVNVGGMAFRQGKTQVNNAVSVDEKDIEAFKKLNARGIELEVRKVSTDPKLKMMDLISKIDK
3. MKTIFTVGAVVLATCLLSGCVNEQKVNQLASNVQTLNAKIARLEQDMKALRPQIYAAKSEANRANTRLDAQDYFDCLRCLRMYAE
4. MIEKIWSGESPLWRLLLPLSWLYGLVSGAIRLCYKLKLKRAWRAPVPVVVVGNLTAGGNGKTPVVVWLVEQLQQRGIRVGVVSRGYGGKAESYPLLLSADTTTAQAGDEPVLIYQRTDAPVAVSPVRSDAVKAILAQHPDVQIIVTDDGLQHYRLARDVEIVVIDGVRRFGNGWWLPAGPMRERAGRLKSVDAVIVNGGVPRSGEIPMHLLPGQAVNLRTGTRCDVAQLEHVVAMAGIGHPPRFFATLKMCGVQPEKCVPLADHQSLNHADVSALVSAGQTLVMTEKDAVKCRAFAEENWWYLPVDAQLSGDEPAKLLTQLTLLASGN
5. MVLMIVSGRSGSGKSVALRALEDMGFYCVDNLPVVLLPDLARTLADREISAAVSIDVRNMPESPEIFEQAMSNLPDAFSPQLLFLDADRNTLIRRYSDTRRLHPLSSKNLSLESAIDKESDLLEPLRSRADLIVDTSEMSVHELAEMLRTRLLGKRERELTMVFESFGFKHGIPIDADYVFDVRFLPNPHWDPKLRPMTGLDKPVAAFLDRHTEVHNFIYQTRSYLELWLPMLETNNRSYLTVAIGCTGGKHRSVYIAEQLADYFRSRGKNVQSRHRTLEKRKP [P0A894]

Result:
8.98
13
6.54
8.44
11.5
